Attribution: ChEMBL document CHEMBL3399939

Assay: Inhibition of K+-stimulated H(+)/K(+) ATPase in porcine gastric mucosal microsomal fraction assessed as reduction in inorganic phosphate release incubated at 37 degC for 30 mins in presence of ATP by malachine green dye based colorimetry
Format: microsomes, Sus scrofa, Gastric mucosa
Measured Parameter: IC50 (nM)

CNCc1cn(S(=O)(=O)c2ccc(C)cc2)c(-c2ccccc2)n1 yielded IC50 of 99

CNCc1cc(-c2ccccc2)c(S(=O)(=O)c2ccccc2)s1 yielded IC50 of 52

CNCc1cc(S(=O)(=O)c2ccccc2)c(-c2ccccc2)s1 yielded IC50 of 150

CNCc1nc(-c2ccccc2)c(S(=O)(=O)c2ccccc2)s1 yielded IC50 of 170

a = CNCc1cc(S(=O)(=O)c2ccccc2)n(-c2ccccc2)c1
b = CNCc1cc(S(=O)(=O)c2ccccc2)c(-c2ccccc2)o1
c = CNCc1cc(S(=O)(=O)c2ccccc2)n(-c2ccccc2)n1
Sort low-to-high on IC50, please. Please respond by ranking the labels in the order requested. c, a, b

---

Assay: Lipophilicity, log D of the compound
Type: physicochemical
Settings: octanol/water
Measured Parameter: logD

Below: 3 compounds and their reported logD.
CNCc1nc(-c2ccccc2)c(S(=O)(=O)c2ccccc2)s1 yielded logD of 2.1

CNCc1cc(S(=O)(=O)c2ccccc2)c(-c2ccccc2)s1 yielded logD of 1.9

CNCc1cc(S(=O)(=O)c2ccccc2)n(-c2ccccc2)c1 yielded logD of 0.4

A = CNCc1cc(S(=O)(=O)c2ccccc2)c(-c2ccccc2)o1
B = CNCc1cc(S(=O)(=O)c2ccccc2)n(-c2ccccc2)n1
Which is greater in logD, the first item A or the second item B ? Respond using the label that marks the chosen record. A
(A: 1.8, B: 1.1)

A = CNCc1cc(-c2ccccc2)c(S(=O)(=O)c2ccccc2)s1
B = CNCc1cn(S(=O)(=O)c2ccc(C)cc2)c(-c2ccccc2)n1
Hey, which is lower on measured logD, A or B ? Respond using the label that marks the chosen record. B
